Molecular target: human 11b-hsd-1 (Homo sapiens, UniProt P28845)
Sequence (P28845 whole entry): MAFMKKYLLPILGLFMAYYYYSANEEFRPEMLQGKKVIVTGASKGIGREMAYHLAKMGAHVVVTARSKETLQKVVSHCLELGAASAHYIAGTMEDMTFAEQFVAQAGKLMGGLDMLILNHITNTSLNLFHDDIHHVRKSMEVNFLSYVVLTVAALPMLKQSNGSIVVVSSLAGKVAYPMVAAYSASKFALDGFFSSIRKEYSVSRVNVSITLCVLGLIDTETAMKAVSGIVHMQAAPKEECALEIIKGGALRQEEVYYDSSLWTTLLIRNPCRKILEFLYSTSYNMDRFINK
Experiment: Inhibition constant Ki of human 11b-hsd-1 (3H-cortisone to 3H-cortisol conversion, HPLC)
Format: biochemical
Settings: 0.1 μM compound
Hi there, I'd appreciate the recorded inhibition at 0.1 µM for every entry that follows.
Put down the number, then write its unit next to it.

[Q] Request the reported inhibition at 0.1 µM associated with O=C(NC1C2CC3CC(C2)CC1C3)[C@@H]1C[C@H](Oc2ccc(Cl)c(F)c2)CN1 (stereo partly shown)
[A] 100%

[Q] Recorded inhibition at 0.1 µM for "Cc1ccccc1CNC(=O)[C@H]1CCCN1Cc1ccccc1" , please?
[A] 87.7%

[Q] Looking for the measured inhibition at 0.1 µM of "O=C(N[C@@H]1CCCc2ccccc21)[C@H]1COCCN1CC1CCCC1" , can you help?
[A] 84.8%

[Q] # get_value(readout='inhibition at 0.1 µM', item= "COc1ccccc1CNC(=O)[C@H]1CCCN1Cc1cccc(Cl)c1" )
[A] 77.9%

[Q] Quick one: inhibition at 0.1 µM for "O=C(N[C@@H]1CCc2ccccc21)[C@H]1CCCN1Cc1ccccc1" ?
[A] 100%

[Q] I would be grateful if you could share the reported inhibition at 0.1 µM for "CN(Cc1ccccc1Cl)C(=O)[C@H]1COCCN1CC1CCCC1" .
[A] 95.3%

[Q] Please give the measured inhibition at 0.1 µM for this compound: "Cc1ccccc1CNC(=O)[C@H]1CCCN1CCC(F)(F)F"
[A] 86.5%

[Q] Recorded inhibition at 0.1 µM for "Cc1ccccc1CNC(=O)[C@H]1CCCN1Cc1ccc(Cl)cc1" , please?
[A] 100%

[Q] Consider the compound shown here: "O=C(NCc1c(F)cccc1F)[C@H]1CCCN1CC1CCCC1" What is its recorded inhibition at 0.1 µM?
[A] 81.4%

[Q] Quick check: inhibition at 0.1 µM of "Cc1ccc(CNC(=O)[C@H]2CCCN2CCC(F)(F)F)cc1" ?
[A] 69.4%

[Q] Which inhibition at 0.1 µM is reported for this compound? "O=C(N[C@@H]1CCCc2ccccc21)[C@H]1CCCN1CC1CCCC1"
[A] 100%

[Q] Look at this compound and give its reported inhibition at 0.1 µM. "O=C(NC1CCCCC1)[C@H]1CCCN1Cc1ccccc1"
[A] 100%

[Q] # get_value(readout='inhibition at 0.1 µM', item= O=C(NC1C2CC3CC(C2)CC1C3)[C@@H]1C[C@H](Oc2cccc(F)c2)CN1 (stereo partly shown) )
[A] 100%

[Q] Consider the compound shown here: CCOc1ccccc1O[C@@H]1CN[C@H](C(=O)NC2C3CC4CC(C3)CC2C4)C1 (stereo partly shown) What is its recorded inhibition at 0.1 µM?
[A] 100%

[Q] Reported inhibition at 0.1 µM for "CC(C)CN1CCC[C@@H]1C(=O)NCc1ccc(Cl)cc1" : what is it?
[A] 95.7%

[Q] Recorded inhibition at 0.1 µM for "CC(C)CN1CSC[C@@H]1C(=O)N(C)C1CCCCC1" , please?
[A] 85.3%

[Q] What does the record list as inhibition at 0.1 µM for "CC(C)CN1CCC[C@@H]1C(=O)NCc1ccc(F)cc1F" ?
[A] 88.4%

[Q] Look at this compound and give its reported inhibition at 0.1 µM. "O=C(NCc1ccc(F)cc1F)[C@H]1COCCN1Cc1ccccc1"
[A] 81.6%

[Q] For the compound shown here, "CC(C)CN1CCC[C@@H]1C(=O)N[C@H](C)c1ccccc1" , give the reported inhibition at 0.1 µM.
[A] 98.7%

[Q] Could you tell me which inhibition at 0.1 µM is on file for "O=C(NCc1ccc(F)cc1F)[C@H]1CCCN1CCC(F)(F)F" ?
[A] 78.9%

[Q] Return reported inhibition at 0.1 µM; argument: CCC1CCCCN1C(=O)[C@H]1CSCN1CC(C)C (stereo partly shown)
[A] 91.6%

[Q] Query: inhibition at 0.1 µM; subject: "O=C(NCc1ccccc1)[C@H]1CCCN1CC1CC1"
[A] 90%

[Q] # get_value(readout='inhibition at 0.1 µM', item= O=C(NC1C2CC3CC(C2)CC1C3)[C@@H]1C[C@H](Oc2ccc(F)cc2)CN1 (stereo partly shown) )
[A] 100%

[Q] Can you share its inhibition at 0.1 µM? I mean this compound: O=C(NC1C2CC3CC(C2)CC1C3)[C@@H]1C[C@H](Oc2ccccc2Cl)CN1 (stereo partly shown)
[A] 100%

[Q] Suppose we examine the compound N#Cc1cccc(CN2CCOC[C@@H]2C(=O)NC2C3CC4CC(C3)CC2C4)c1 (stereo partly shown) ; what inhibition at 0.1 µM value has been reported?
[A] 100%

[Q] Sample "COc1ccccc1CNC(=O)[C@H]1CCCN1CC1CCCC1" — what was its inhibition at 0.1 µM?
[A] 100%

[Q] Which inhibition at 0.1 µM is reported for this compound? O=C(NC1C2CC3CC(C2)CC1C3)[C@@H]1C[C@H](Oc2ccccc2)CN1 (stereo partly shown)
[A] 100%

[Q] Look at this compound and give its reported inhibition at 0.1 µM. CN(C(=O)C1CCCCN1Cc1ccc(Cl)cc1)C1CCCCC1 (stereo not shown)
[A] 100%

[Q] Tell me the measured inhibition at 0.1 µM of "N#Cc1ccccc1CN1CCOC[C@@H]1C(=O)N[C@@H]1CCc2ccccc21" , please.
[A] 98.7%

[Q] Name the recorded inhibition at 0.1 µM for CCOc1cccc(O[C@@H]2CN[C@H](C(=O)NC3C4CC5CC(C4)CC3C5)C2)c1 (stereo partly shown) .
[A] 100%

[Q] Any idea what inhibition at 0.1 µM was measured for Cc1cc(O[C@@H]2CN[C@H](C(=O)NC3C4CC5CC(C4)CC3C5)C2)ccc1F (stereo partly shown) ?
[A] 100%

[Q] Reported inhibition at 0.1 µM, compound "O=C(NCc1ccc(Cl)cc1)[C@H]1CCCN1Cc1ccc(Cl)cc1" : ____
[A] 35.7%

[Q] Requested read-out: inhibition at 0.1 µM. Entry: "CC(C)CN1CCC[C@@H]1C(=O)NCc1cccc(Cl)c1"
[A] 86.3%

[Q] Name the reported inhibition at 0.1 µM value associated with the compound "O=C(NC12CC3CC(CC(C3)C1)C2)[C@H]1CSCN1Cc1ccc(Cl)cc1"
[A] 100%

[Q] Look up inhibition at 0.1 µM: "CC(C)CN1C[C@H](O)C[C@@H]1C(=O)NCC1CCCCC1"
[A] 97.8%

[Q] Entry "N#Cc1ccc(CN2CCC[C@@H]2C(=O)N[C@@H]2CCCc3ccccc32)cc1" : reported inhibition at 0.1 µM = ?
[A] 100%

[Q] Requested read-out: inhibition at 0.1 µM. Entry: Cc1cccc(O[C@@H]2CN[C@H](C(=O)NC3C4CC5CC(C4)CC3C5)C2)c1 (stereo partly shown)
[A] 100%
